molecular target: Endoplasmic reticulum aminopeptidase 1 (Homo sapiens) (UniProt Q9NZ08); assay: ERAP1 Leu-AMC hydrolysis inhibition – biochemical, fluorescence, dry powder, set 2, dose response (AID 1117287); conditions: 60 min, at 50 µM (top of the series)
Sequence (Q9NZ08 whole entry, looked up): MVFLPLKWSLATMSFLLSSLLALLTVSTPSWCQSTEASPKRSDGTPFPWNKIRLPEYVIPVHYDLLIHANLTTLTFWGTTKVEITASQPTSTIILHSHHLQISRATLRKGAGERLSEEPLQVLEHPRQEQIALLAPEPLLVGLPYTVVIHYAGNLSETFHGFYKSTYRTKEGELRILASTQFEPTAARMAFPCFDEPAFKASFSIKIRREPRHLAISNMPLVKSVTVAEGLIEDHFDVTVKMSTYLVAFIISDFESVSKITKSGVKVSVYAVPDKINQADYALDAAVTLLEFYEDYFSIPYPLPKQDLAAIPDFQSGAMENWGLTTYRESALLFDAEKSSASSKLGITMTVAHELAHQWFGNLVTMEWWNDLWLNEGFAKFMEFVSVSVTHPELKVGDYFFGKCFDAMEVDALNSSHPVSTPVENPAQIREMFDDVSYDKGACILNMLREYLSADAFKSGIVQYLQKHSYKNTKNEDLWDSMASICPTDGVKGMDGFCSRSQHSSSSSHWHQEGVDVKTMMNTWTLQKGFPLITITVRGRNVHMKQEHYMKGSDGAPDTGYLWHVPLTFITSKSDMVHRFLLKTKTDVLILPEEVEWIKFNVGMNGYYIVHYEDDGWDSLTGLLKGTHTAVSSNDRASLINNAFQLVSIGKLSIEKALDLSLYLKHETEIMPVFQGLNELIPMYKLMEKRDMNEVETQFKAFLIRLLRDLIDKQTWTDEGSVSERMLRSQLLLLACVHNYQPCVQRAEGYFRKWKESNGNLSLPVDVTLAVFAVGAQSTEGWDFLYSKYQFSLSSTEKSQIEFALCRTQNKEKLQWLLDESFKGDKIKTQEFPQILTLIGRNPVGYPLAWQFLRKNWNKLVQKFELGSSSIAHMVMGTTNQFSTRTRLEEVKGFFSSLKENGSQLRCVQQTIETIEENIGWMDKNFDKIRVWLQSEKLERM
The source made the active and inactive calls.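 Rule for the calls: active = inhibitor whose half-maximal potency stays within twice the top tested dose in every replicate test; inconclusive = mixed calls across tests, weak flat response, or poor curve fit; inactive = all tests inactive, including rising signal.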
Metric: activity change, negative = inhibition

Below, 5 compounds whose answers are already recorded.
// recorded activity change, negative = inhibition for Cc1ccc(C(=O)O)cc1S(=O)(=O)Nc1cc(C(F)(F)F)ccc1N1CCCCC1 : inactive

// recorded activity change, negative = inhibition for COc1ccc(C(=O)Nc2cccc(C(F)(F)F)c2)cc1S(=O)(=O)O : inactive

// recorded activity change, negative = inhibition for O=C(O)c1cc(F)cc(S(=O)(=O)Nc2cc(C(F)(F)F)ccc2N2CCCCC2)c1 : inactive

// recorded activity change, negative = inhibition for COc1ccc(C(=O)O)cc1S(=O)(=O)Nc1cc(C(F)(F)F)ccc1N1CCN(C(C)=O)CC1 : inactive

// recorded activity change, negative = inhibition for Cc1ccc(S(=O)(=O)Nc2cc(C(F)(F)F)ccc2N2CCCCC2)cc1C(=O)O : inactive

Continuing:
// recorded activity change, negative = inhibition for COc1ccc(C(=O)O)cc1S(=O)(=O)Nc1cc(C(F)(F)F)ccc1N1CCOCC1 : inactive

// recorded activity change, negative = inhibition for COc1ccc(C(=O)O)cc1S(=O)(=O)Nc1cc(C(F)(F)F)ccc1N1CCCCC1 : inactive

// recorded activity change, negative = inhibition for COc1ccc(C(=O)O)cc1S(=O)(=O)Nc1cc(C(F)(F)F)ccc1N(C)C : inactive

meta.source: PubChem BioAssay AID1117287
